Attribution: patent US9376415B2

- Tested on: HT-29
- assay text: Cell growth inhibitory activity (Almar Blue), HT-29
- Assay type: cell-based
- experimental setup: Homo sapiens; HT-29 cancer cells, cultured for 72 hours
Known IC50 of a selection of compounds
Please reply with the bare figure in nM and do not write the unit itself.

>>> result_value("C=C1C(O)C(C)(/C=C/C(=O)O)C2C(C)=CC3(C)C(/C(C)=C\\C)OC1C23C (centres unmarked)")
310

Would you kindly look at the next entry?
### Prompt Please report the recorded IC50 for C/C=C(/C)C1OC2C(C)=CC(C)(/C=C/C(=O)O)C3C(C)=CC1(C)C23C (centres unmarked) .
### Response 590
